Recorded Kd by entry
Target: T1, 재조합 인간 ASM(acid sphingomyelinase) 단백질 (human, UniProt P17405 62-630, limits assumed)
T1 construct: Recombinant protein, bought (R&D systems in the ELISA); also called 인간 ASM 단백질; recombinant human ASM protein
T1 sequence: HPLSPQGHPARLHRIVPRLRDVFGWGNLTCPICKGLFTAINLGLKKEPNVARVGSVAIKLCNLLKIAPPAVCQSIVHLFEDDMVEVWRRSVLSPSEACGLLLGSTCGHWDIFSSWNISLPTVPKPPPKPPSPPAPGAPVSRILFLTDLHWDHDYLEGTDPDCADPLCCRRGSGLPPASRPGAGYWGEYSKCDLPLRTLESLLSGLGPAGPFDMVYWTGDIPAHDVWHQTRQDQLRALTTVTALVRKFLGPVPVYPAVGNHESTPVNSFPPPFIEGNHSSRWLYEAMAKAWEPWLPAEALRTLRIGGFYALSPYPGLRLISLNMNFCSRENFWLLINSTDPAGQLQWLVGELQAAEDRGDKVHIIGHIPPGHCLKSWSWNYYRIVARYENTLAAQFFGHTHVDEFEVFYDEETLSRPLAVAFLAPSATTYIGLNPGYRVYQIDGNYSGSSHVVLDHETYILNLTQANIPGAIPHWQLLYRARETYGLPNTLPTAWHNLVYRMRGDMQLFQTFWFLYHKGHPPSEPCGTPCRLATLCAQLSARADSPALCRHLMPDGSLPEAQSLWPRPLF
Assay: BLI (Octet QK384), human ASM amine-coupled on AR2G sensor, antibody 0.4, 2, 10 nM

Binder | Kd
#9108 항체 (antibody, mouse IgG1, V domains shown) VH: EVQLLESGGGLVQPGGSLRLSCAASGFTFSNYAMSWVRQAPGKGLEWVSAIYPGGGSIYYADSVKGRFTISRDNSKNTLYLQMNSLRAEDTAVYYCARDVLGLTPKPFDYWGQGTLVTVSS VL: QSVLTQPPSASGTPGQRVTLSCTGSSSNIGSNTVYWYQQLPGTAPKLLIYANSQRPSGVPDRFSGSKSGTSASLAISGLRSEDEADYYCGSWDYSLSGYVFGGGTKLTVLG | 0.119 nM
#9113 항체 (antibody, mouse IgG1, V domains shown, also called #9113 mIgG1) VH: EVQLLESGGGLVQPGGSLRLSCAASGFTFSSYYMSWVRQAPGKGLEWVSSISPGGSSIYYADSVKGRFTISRDNSKNTLYLQMNSLRAEDTAVYYCAKGASLFDYWGQGTLVTVSS VL: QSVLTQPPSASGTPGQRVTISCSGSSSNIGNNAVSWYQQLPGTAPKLLIYSDNKRPSGVPDRFSGSKSGTSASLAISGLRSEDEADYYCGTWDASLNAYVFGGGTKLTVLG | 0.564 nM
#9104 항체 (antibody, mouse IgG1, V domains shown) VH: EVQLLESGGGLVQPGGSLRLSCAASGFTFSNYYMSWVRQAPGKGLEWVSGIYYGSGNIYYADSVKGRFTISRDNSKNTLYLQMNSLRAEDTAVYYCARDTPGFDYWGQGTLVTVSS VL: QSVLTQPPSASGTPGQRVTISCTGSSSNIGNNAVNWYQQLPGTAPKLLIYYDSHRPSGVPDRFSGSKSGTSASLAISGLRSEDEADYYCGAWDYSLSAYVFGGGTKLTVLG | 0.209 nM
#9101 항체 (antibody, mouse IgG1, V domains shown) VH: EVQLLESGGGLVQPGGSLRLSCAASGFTFSNYAMSWVRQAPGKGLEWVSGIYPNGGNKYYADSVKGRFTISRDNSKNTLYLQMNSLRAEDTAVYYCAKNAYRFDYWGQGTLVTVSS VL: QSVLTQPPSASGTPGQRVTISCSGSSSNIGNNYVSWYQQLPGTAPKLLIYADSKRPSGVPDRFSGSKSGTSASLAIGGLRSEDEADYYCGSWDYSLNAYVFGGGTKLTVLG | 1.16 nM
